- TARGET_OF_ASSAY: EGF receptor autophosphorylation in A431 cells (Homo sapiens, UniProt P00533)
- Construct: A431 human epidermoid carcinoma cells were grown in 6-well plates; endogenous in cells; host or cells: A431 human epidermoid carcinoma cells
- Sequence (P00533 25-1210): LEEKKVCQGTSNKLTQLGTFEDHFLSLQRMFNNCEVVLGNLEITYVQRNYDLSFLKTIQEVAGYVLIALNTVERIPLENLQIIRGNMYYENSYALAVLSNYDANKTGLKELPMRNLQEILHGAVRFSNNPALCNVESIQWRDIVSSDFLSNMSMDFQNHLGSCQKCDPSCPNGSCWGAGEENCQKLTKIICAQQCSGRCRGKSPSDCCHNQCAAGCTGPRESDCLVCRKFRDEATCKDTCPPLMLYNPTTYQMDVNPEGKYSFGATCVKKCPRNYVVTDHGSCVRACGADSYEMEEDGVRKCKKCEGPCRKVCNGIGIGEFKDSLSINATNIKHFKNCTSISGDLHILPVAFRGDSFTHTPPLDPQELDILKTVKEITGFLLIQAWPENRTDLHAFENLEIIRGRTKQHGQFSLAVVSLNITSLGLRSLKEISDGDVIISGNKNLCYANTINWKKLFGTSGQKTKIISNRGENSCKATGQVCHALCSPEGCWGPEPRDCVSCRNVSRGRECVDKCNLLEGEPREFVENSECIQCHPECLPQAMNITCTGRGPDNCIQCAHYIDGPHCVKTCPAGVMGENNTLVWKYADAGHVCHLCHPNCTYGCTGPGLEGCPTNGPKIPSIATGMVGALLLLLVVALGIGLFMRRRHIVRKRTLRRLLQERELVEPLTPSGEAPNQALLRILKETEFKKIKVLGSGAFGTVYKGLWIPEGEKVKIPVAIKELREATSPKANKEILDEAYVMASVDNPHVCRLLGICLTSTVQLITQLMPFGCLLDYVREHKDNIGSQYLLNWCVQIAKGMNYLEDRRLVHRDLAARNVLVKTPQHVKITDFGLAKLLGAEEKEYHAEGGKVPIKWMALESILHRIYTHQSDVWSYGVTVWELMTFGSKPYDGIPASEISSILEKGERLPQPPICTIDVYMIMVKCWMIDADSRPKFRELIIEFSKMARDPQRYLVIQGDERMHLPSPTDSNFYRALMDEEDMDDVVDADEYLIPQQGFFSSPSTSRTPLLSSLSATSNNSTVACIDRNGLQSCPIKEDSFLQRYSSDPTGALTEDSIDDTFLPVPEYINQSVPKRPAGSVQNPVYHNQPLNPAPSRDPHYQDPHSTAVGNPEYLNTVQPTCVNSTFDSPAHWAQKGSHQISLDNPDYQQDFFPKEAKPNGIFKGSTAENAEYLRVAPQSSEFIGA
- ASSAY_NOTES: Irreversibility test: recovery of EGF receptor autophosphorylation after washout
- Format: cell-based
- RECORDED_CONDITIONS: A431 cells, 2 μM inhibitor, washed, 8 hours drug-free
MEASURED_METRIC: % Control After 8 Hours in Drug-Free Media Incubation (%)

As a guide, the following entries are already answered.
C=CC(=O)Nc1ccc2c(Nc3cccc(C)c3)ncnc2c1 : 90
C=CC(=O)Nc1ccc2ncnc(Nc3cccc(Cl)c3)c2c1 : 0
O=C(/C=C/Cl)Nc1cc2c(Nc3cccc(Br)c3)ncnc2cn1 : 0

I. C=C(C)C(=O)Nc1ccc2c(Nc3cccc(Br)c3)ncnc2c1
II. C=CC(=O)Nc1cc2ncnc(Nc3cccc(Br)c3)c2cn1
-- ask Choose between I and II : whose measured % Control After 8 Hours in Drug-Free Media Incubation value is numerically larger? Write down the label attached to your selection.
-- reply I
(I: 85%, II: 20%)

###

- TARGET_OF_ASSAY: EGF receptor tyrosine kinase (Homo sapiens, UniProt P00533)
- ASSAY_NOTES: Tyrosine kinase assay, isolated EGF receptor tyrosine kinase
- Type: biochemical
- RECORDED_CONDITIONS: Table 4; read-out: EGFR IC50
MEASURED_METRIC: IC50 (nM)
// note: answer is a bare numeric in nM

-- ask Item under review: C=CC(=O)Nc1ccc2c(Nc3cccc(Br)c3)ncnc2c1 . Reported IC50?
-- reply 0.36

###

- TARGET_OF_ASSAY: FGF receptor intracellular kinase domain (FGF1) (Homo sapiens, UniProt P11362)
- Construct: Assays using intracellular kinase domains of PDGF, FGF, and insulin receptors
- Sequence (P11362 478-767 limits assumed): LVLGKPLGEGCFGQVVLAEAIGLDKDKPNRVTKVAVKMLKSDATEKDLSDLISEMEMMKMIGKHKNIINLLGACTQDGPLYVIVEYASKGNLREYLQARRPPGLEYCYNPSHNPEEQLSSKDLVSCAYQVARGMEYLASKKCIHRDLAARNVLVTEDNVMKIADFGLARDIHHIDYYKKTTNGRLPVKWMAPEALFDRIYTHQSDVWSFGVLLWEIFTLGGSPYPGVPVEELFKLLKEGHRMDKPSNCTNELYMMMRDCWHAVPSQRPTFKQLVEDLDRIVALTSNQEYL
- ASSAY_NOTES: Tyrosine kinase assay, FGF receptor
pIC50: −log10 of the molar value.
MEASURED_METRIC: pIC50

-- ask Item under review: C=CC(=O)Nc1ccc2c(Nc3cccc(Br)c3)ncnc2c1 . Reported pIC50?
-- reply < 4.30

###

- TARGET_OF_ASSAY: UniProtKB P00533
- ASSAY_NOTES: Tyrosine kinase assay, isolated EGF receptor tyrosine kinase
- Format: biochemical
- RECORDED_CONDITIONS: isolated EGFR kinase; read-out: EGFR Tyrosine Kinase IC50
MEASURED_METRIC: IC50 (nM)

CC=CC(=O)Nc1ccc2c(Nc3cccc(Br)c3)ncnc2c1 : 0.46
C=CS(=O)(=O)Nc1ccc2c(Nc3cccc(Br)c3)ncnc2c1 : 3.7
C=CC(=O)Nc1ccc2ncnc(Nc3cccc(C(F)(F)F)c3)c2c1 : 0.91
C=CC(=O)Nc1ccc2c(c1)sc1c(Nc3cccc(Br)c3)ncnc12 : 21
C=CC(=O)Nc1ccc2ncnc(Nc3cccc(Cl)c3)c2c1 : 1.6
C=CC(=O)Nc1ccc2c(Nc3cccc(C)c3)ncnc2c1 : 1.6
C=CC(=O)Nc1ccc2c(Nc3cccc(Br)c3)ncnc2c1 : 0.36

I. C=CC(=O)Nc1cc2c(Nc3cccc(Br)c3)ncnc2cc1OCCCCN(C)C
II. C=CC(=O)Nc1cc2ncnc(Nc3cccc(Br)c3)c2cn1
-- ask Which has the smaller recorded IC50, I or II ? Write down the label attached to your selection.
-- reply II
